// data source = ChEMBL document CHEMBL1201862

System: MCF7
run-description: NCI tumour cell line growth inhibition, 48 h
Active and inactive are the calls of the source. No stated cut-off is given here; in the data, active = GI50 up to about 1.1 µM and inactive = higher.
Labels: active, inactive

>  <compound>
CC(CN(C)C)C(=O)/C=C/c1ccc(Cl)c(Cl)c1 (centres undefined)

>  <assigned-label>
active

$$$$
>  <compound>
Nn1c(Cc2ccc([N+](=O)[O-])cc2)n[nH]c1=O

>  <assigned-label>
inactive

$$$$
>  <compound>
Cc1noc(C)c1-n1nc2ccc3nonc3c2n1

>  <assigned-label>
inactive

$$$$
>  <compound>
CCOC(=O)c1[nH]c2cccc3c2c1CC(Br)C3=O (centres undefined)

>  <assigned-label>
inactive

$$$$
>  <compound>
Cc1nc2ccccc2n1Cc1nnc(-c2ccccc2)o1

>  <assigned-label>
inactive

$$$$
>  <compound>
CC(=O)O[C@H]1C(=O)[C@@]2(C)[C@H]([C@H](OC(=O)c3ccccc3)[C@]3(O)C[C@H](OC(=O)[C@H](O)[C@@H](NC(=O)OC(C)(C)C)c4ccco4)C(C)=C1C3(C)C)[C@]1(OC(C)=O)CO[C@@H]1C[C@@H]2O

>  <assigned-label>
active

$$$$
>  <compound>
CCOC(=O)N1C/C(=C\c2ccccc2)C(=O)/C(=C/c2ccccc2)C1

>  <assigned-label>
active

$$$$
>  <compound>
CNc1ccc([S+]([O-])Nc2ccccc2)cc1 (centres undefined)

>  <assigned-label>
inactive

$$$$
>  <compound>
CCOC(=O)C(NC(=O)c1cccc(Cl)c1)(N1CCN(c2cc3c(cc2F)c(=O)c(C(=O)O)cn3CC)CC1)C(F)(F)F (centres undefined)

>  <assigned-label>
inactive

$$$$
